- target_under_test: human TYK2 (JH2domain-pseudokinase) (Homo sapiens (Human), UniProt P29597)
- Sequence (P29597 556-888): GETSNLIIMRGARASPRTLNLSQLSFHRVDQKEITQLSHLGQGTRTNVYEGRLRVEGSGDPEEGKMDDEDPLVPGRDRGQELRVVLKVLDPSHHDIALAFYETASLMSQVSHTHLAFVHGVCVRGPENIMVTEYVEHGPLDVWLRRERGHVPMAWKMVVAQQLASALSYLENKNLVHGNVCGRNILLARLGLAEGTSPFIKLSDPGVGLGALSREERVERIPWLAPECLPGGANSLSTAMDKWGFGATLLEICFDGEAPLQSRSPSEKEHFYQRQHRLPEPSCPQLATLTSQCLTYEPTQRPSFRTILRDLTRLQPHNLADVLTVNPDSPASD
- assay_notes: TYK2 JH2 Domain Binding Assay (KINOMEscan, DiscoveRx)
- condition_context: 11-point dilution, duplicate
Listing: Kd of selected compounds

// below: answered compounds
Cc1nc2c(Nc3ccc([C@@H]4CCCCO4)cc3S(C)(=O)=O)cc(NC(=O)[C@@H]3CC3(F)F)nc2[nH]1 (stereo in doubt) [I-324] : 1 to 10 nM
Cc1nc2c(Nc3ccccc3N(C)S(C)(=O)=O)cc(Nc3ccc(C)c(C#N)n3)nc2[nH]1 : 0.1 to 0.5 nM
Cc1nc2c(Nc3ccc(-c4cn(C)cn4)cc3S(C)(=O)=O)cc(NC(=O)C3CC3(F)F)nc2[nH]1 (stereo not shown) : 0.5 to 1 nM
COc1c(Nc2cc(NC(=O)C3CC3)nc3[nH]c(C)nc23)cccc1C(=O)O : > 10 nM
COCCCc1cnc(-c2ccc(Nc3cc(NC(=O)C4CC4)nc4[nH]c(C(F)F)nc34)c(S(C)(=O)=O)c2)s1 : 0.1 to 0.5 nM
Cc1nc2c(Nc3ccccc3S(C)(=O)=O)cc(Nc3cc4c(nn3)CCC4)nc2[nH]1 : 0.1 to 0.5 nM

Given the entry "Cc1c(-c2ccc(Nc3cc(NC(=O)[C@H]4CC4(F)F)nc4[nH]c(C(F)F)nc34)c(S(C)(=O)=O)c2)cnn1C" , report its measured Kd. 0.1 to 0.5 nM

* * *

Catalogue of pKd readings, one per entry.
- target_under_test: human TYK2 (JH2domain-pseudokinase) (Homo sapiens (Human), UniProt P29597)
- assay_notes: TYK2 JH2 Domain Binding Assay (KINOMEscan, DiscoveRx)
- condition_context: 11-point dilution, duplicate
pKd: −log10 of the molar value.

Some compounds with known pKd results, for comparison:
Cc1nc2c(Nc3ccccc3S(C)(=O)=O)cc(Nc3cccc(C(F)(F)F)n3)nc2[nH]1 [I-600] : 9.30 to 10.00
Cc1c(-c2ccc(Nc3cc(NC(=O)C4CC4)nc4[nH]c(C(F)F)nc34)c(S(C)(=O)=O)c2)nn(C)c1C [I-350] : 9.30 to 10.00
Cc1nc2c(Nc3ccc(C4=NC(C)(C)CS4)cc3S(C)(=O)=O)cc(NC(=O)C3CC3(F)F)nc2[nH]1 (centres unmarked) [I-346] : < 8.00

Given the entry CN=S(C)(=O)c1ccccc1Nc1cc(NC(=O)C2CC2)nc2[nH]c(C)nc12 (centres unmarked) [I-328] , report its measured pKd. 9.30 to 10.00

Please give the measured pKd for this compound: COc1c(Nc2cc(NC(=O)C3CC3)nc3[nH]c(C)nc23)cccc1-c1nc(C)cs1 [I-321] 8.00 to 9.00

Recorded pKd of COc1c(Nc2cc(Nc3cccc(C#N)n3)nc3[nH]c(C(F)F)nc23)cccc1-c1noc(C)n1 [I-598] , please. 9.00 to 9.30

Tell me the measured pKd of CS(=O)(=O)c1cc(C2CC2)ccc1Nc1cc(Nc2cc3n(n2)CCCCC3)nc2[nH]c(C(F)F)nc12 [I-409] , please. 9.30 to 10.00

Recorded pKd of CN(c1cc(-c2ccn(C)n2)ccc1Nc1cc(NC(=O)C2CC2)nc2[nH]c(C(F)F)nc12)S(C)(=O)=O [I-171] , please. 9.30 to 10.00

FYI, the data here is from patent US10647713B2.
